These entries and their values trace back to PubChem BioAssay AID1906.

# Tested on: cathepsin L1 (Fasciola hepatica)
# assay-method-text: CTSL1 protease inhibition, fluke enzyme – biochemical, QFRET, fluorogenic peptide substrate, counter-screen for PFM18AAP inhibitor project, primary screen (AID 1906)
# condition-info: recombinant F. hepatica cathepsin L1, Z-Leu-Arg-MCA fluorescence; at 5.96 µM
About 1,500 (0.5%) of roughly 300,000 compounds were called active.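 The calls were made as follows: active = inhibition above the mean of all tested compounds plus 3 SD, set per screening campaign (cut at about 17% in these data); inactive = the rest.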 The sample as a whole holds a higher share of actives than the screen did.
Form entry, call: pick from active, inactive

[
  {
    "molecule": "Cn1nccc1NC(=O)Nc1ccc(OC(F)(F)F)cc1",
    "assigned-category": "active"
  }
]

Hey, what did the test say about `O=C(COC(=O)c1cc(S(=O)(=O)N2CCCCC2)ccc1Cl)NCc1ccco1` ?
inactive
